The values you see were collected from ChEMBL document CHEMBL1128343.

Test system: Mus musculus
Assay: Plasma concentration at time-0 was measured in mice at 100 mg/kg after intraperitoneal administration with 90% DMSO as vehicle
Type: ADME, organism-based
Set-up: dose 100 mg/kg, route intraperitoneal
Conditions: in vivo, ip, read-out: Co
valueKind: concentration (µM)
Please give a number only; it is taken to be in µM.

Request: Bench note: what concentration did O=c1[nH]c(Nc2ccccc2)nc2c1ncn2CCCCO show?
Response: 30.5

* * *

Assay: Half life in mice plasma was determined at 100 mg/kg after intraperitoneal administration with saline(pH=11.4) as vehicle
Format: ADME, organism-based
Design: dose 100 mg/kg, route intraperitoneal
Conditions: mouse, ip
valueKind: half-life (h)
Please give a number only; it is taken to be in h.

Request: Bench note: what half-life did O=C1N=C(Nc2ccccc2)N=C2C1N=CN2[C@H]1C[C@H](O)[C@@H](CO)O1 (stereo partly specified) show?
Response: 1

* * *

Tested on: Mus musculus
Assay: Plasma concentration at time-0 was measured in mice at 100 mg/kg after intraperitoneal administration with saline(pH=11.4) as vehicle
Type: ADME, organism-based
Set-up: dose 100 mg/kg, route intraperitoneal
Conditions: in vivo, ip, pH 11.4, 100 mg/kg, read-out: Co
valueKind: concentration (µM)
Please give a number only; it is taken to be in µM.

Request: Bench note: what concentration did O=C1N=C(Nc2ccccc2)N=C2C1N=CN2[C@H]1C[C@H](O)[C@@H](CO)O1 (some centres not stated) show?
Response: 11.7

Request: What about this molecule? O=c1[nH]c(Nc2cccc(C(F)(F)F)c2)nc2nc[nH]c12
Response: 10.2

* * *

Test system: Mus musculus
Assay: Plasma concentration at time-0 was measured in mice at 40 mg/kg after intravenous administration with 90% DMSO as vehicle
Assay type: ADME, organism-based
Design: dose 40 mg/kg, route intravenous
Conditions: in vivo, read-out: Co
valueKind: concentration

Request: Query concentration on Mus musculus for O=c1[nH]c(Nc2ccccc2)nc2c1ncn2CCO
Response: 44.7 µM

Request: What about this compound? O=c1[nH]c(Nc2ccccc2)nc2c1ncn2CCCCO
Response: 49.5 µM

* * *

Assay: Half life in mice plasma was determined at 40 mg/kg after intravenous administration with 90% DMSO as vehicle
Type: ADME, organism-based
Parameters: dose 40 mg/kg, route intravenous
Settings: mouse
Please respond with reported half-life for every item in the list.
Please give a number only; it is taken to be in min.

Request: Bench note: what half-life did O=c1[nH]c(Nc2ccccc2)nc2c1ncn2CCO show?
Response: 15

Request: What about this molecule? O=c1[nH]c(Nc2ccccc2)nc2c1ncn2CCCCO
Response: 14

* * *

Please respond with reported pIC50 for every item in the list.
Target: Thymidine kinase (Human herpesvirus 2, UniProt Q6L709)
Sequence (Q6L709 whole entry): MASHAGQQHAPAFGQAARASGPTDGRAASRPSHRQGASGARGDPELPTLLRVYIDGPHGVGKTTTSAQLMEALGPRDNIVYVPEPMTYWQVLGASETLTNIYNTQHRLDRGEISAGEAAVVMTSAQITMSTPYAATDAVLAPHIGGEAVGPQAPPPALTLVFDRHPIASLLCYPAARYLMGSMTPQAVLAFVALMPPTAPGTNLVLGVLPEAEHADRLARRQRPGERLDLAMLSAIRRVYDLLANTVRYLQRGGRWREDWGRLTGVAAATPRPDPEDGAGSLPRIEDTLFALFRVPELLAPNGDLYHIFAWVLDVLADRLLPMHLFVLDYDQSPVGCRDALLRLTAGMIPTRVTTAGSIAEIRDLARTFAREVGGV
For clarity, pIC50 is expressed as the negative log10 of concentration in mol/L.

Request: Bench note: what pIC50 did O=c1[nH]c(Nc2cccc(CC(F)(F)F)c2)nc2nc[nH]c12 show?
Response: 6.00

Request: What about this compound? O=c1[nH]c(Nc2cccc(C(Cl)C(F)(F)Cl)c2)nc2nc[nH]c12 (stereo unspecified)
Response: 6.33

Request: What about this compound? O=c1[nH]c(Nc2ccccc2)nc2c1ncn2CC(O)CO (stereo unspecified)
Response: 5.46

Request: What about this compound? O=c1[nH]c(Nc2cccc(C(F)F)c2)nc2nc[nH]c12
Response: 5.41

Request: What about this compound? O=C1N=C(Nc2cccc(C(F)(F)F)c2)N=C2C1N=CN2[C@H]1C[C@H](O)[C@@H](CO)O1 (stereo partly specified)
Response: 5.70

Request: What about this compound? O=c1[nH]c(Nc2cccc(C(Cl)=C(Cl)Cl)c2)nc2[nH]cnc12
Response: 4.15
